Where do these numbers come from? They come from PubChem BioAssay AID1159580.

assay: chemical genetic growth profiling, strain panel (AID 1159580);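 also: tested at 20 µM; growth read once vehicle control cultures reached saturation at 30 °C; 1 = growth at the plate median or of vehicle wells; lower values mean less growth of the strain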; conditions: S. cerevisiae deletion strains, growth OD, locus YJL134W, strain LCB3
About 2,000 (36%) of roughly 5,500 compounds were called active. Another 18% or so got no clear call; they are omitted. Rule as the data show it: active = normalized growth mostly below about 0.91 (no sharp cut-off); inconclusive = no clear call, values can overlap the other calls; inactive = mostly above about 0.92. Some of the results follow.
The reply should name one outcome from Y = active, N = inactive

Solved entries (count: 3):
I would be grateful if you could indicate the recorded call for COc1ccc2c(c1)C1(C)CCC(=O)CC1CC2 (stereo not drawn) .
N

I would be grateful if you could indicate the recorded call for NC(=O)N1c2ccccc2CC(=O)c2ccccc21 .
N

I would be grateful if you could indicate the recorded call for CCC(C(=O)O)c1ccccc1 (stereo not drawn) .
N

New cases:
I would be grateful if you could indicate the recorded call for CC1(C)C2CC[C@]3(C)C(C(=O)C=C4[C@@H]5C[C@@](C)(C(=O)O)CC[C@]5(C)CC[C@]43C)[C@@]2(C)CC[C@@H]1OC(=O)CCC(=O)O (stereo partly drawn) .
N

I would be grateful if you could indicate the recorded call for CC(C)[N+](C)(CCOC(=O)C1c2ccccc2Oc2ccccc21)C(C)C .
N

I would be grateful if you could indicate the recorded call for CC(C)(C)CC(C)(C)c1ccc(OCCOCC[N+](C)(C)Cc2ccccc2)cc1 .
N

I would be grateful if you could indicate the recorded call for Cc1cc(C(C)(C)CC(C)(C)C)ccc1OCCOCC[N+](C)(C)Cc1ccccc1 .
Y

I would be grateful if you could indicate the recorded call for NC(N)=NOCC[C@H](N)C(=O)O .
N

I would be grateful if you could indicate the recorded call for CCCCCC(C)N (stereo not drawn) .
N

###

assay: chemical genetic growth profiling, strain panel (AID 1159580);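 also: tested at 20 µM; growth read once vehicle control cultures reached saturation at 30 °C; 1 = growth at the plate median or of vehicle wells; lower values mean less growth of the strain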; details: S. cerevisiae deletion strains, growth OD, locus YOL147C, strain pex11
Hit rate of the full screen: of about 5,500 compounds, about 2,000 (36%) were called active. Another 18% or so got no clear call; they are omitted. Rule as the data show it: active = normalized growth mostly below about 0.91 (no sharp cut-off); inconclusive = no clear call, values can overlap the other calls; inactive = mostly above about 0.92. This is one part of the list.
The reply should name one outcome from active, inactive

Solved entries (count: 6):
I would be grateful if you could indicate the recorded call for CCN(CC)C(=S)SSC(=S)N(CC)CC .
inactive

I would be grateful if you could indicate the recorded call for CC(C)(C)CC(C)(C)c1ccc(OCCOCC[N+](C)(C)Cc2ccccc2)cc1 .
inactive

I would be grateful if you could indicate the recorded call for COc1c(CC=C(C)C)c2c(c3oc(=O)c(-c4ccc(OC(C)=O)cc4)c(OC(C)=O)c13)C=CC(C)(C)O2 .
inactive

I would be grateful if you could indicate the recorded call for O=C1C[C@@H](c2ccccc2)Oc2cc(O)cc(O)c21 .
inactive

I would be grateful if you could indicate the recorded call for O=C1C[C@@H](c2ccc(O)cc2)Oc2cc(O)cc(O)c21 .
inactive

I would be grateful if you could indicate the recorded call for Cc1cc(C(C)(C)CC(C)(C)C)ccc1OCCOCC[N+](C)(C)Cc1ccccc1 .
active

Shift focus to the following entry.
I would be grateful if you could indicate the recorded call for COc1ccc(C2CC(=O)c3ccc(OC)cc3O2)cc1 (configuration not stated) .
inactive

###

experiment: chemical genetic growth profiling, strain panel (AID 1159580);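 also: tested at 20 µM; growth read once vehicle control cultures reached saturation at 30 °C; 1 = growth at the plate median or of vehicle wells; lower values mean less growth of the strain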; conditions: S. cerevisiae deletion strains, growth OD, locus YLR258W, strain gsy2
Among all 5,500 compounds or so, about 2,000 (36%) were called active. Roughly 18% stayed inconclusive and do not appear here. Cut-off read from the data, not from the text of the source: active = normalized growth mostly below about 0.91 (no sharp cut-off); inconclusive = no clear call, values can overlap the other calls; inactive = mostly above about 0.92. This is one part of the list.
The reply should name one outcome from true (1) (active), false (0) (inactive)

I would be grateful if you could indicate the recorded call for CC1(C)S[C@@H]2[C@H](NC(=O)[C@H](NC(=O)N3CCNC3=O)c3ccccc3)C(=O)N2C1C(=O)O (stereo partly specified) .
false (0)

I would be grateful if you could indicate the recorded call for c1ccc(CN(CC2=NCCN2)c2ccccc2)cc1 .
false (0)

I would be grateful if you could indicate the recorded call for O=[N+]([O-])O[C@H]1CO[C@H]2[C@@H]1OC[C@H]2O[N+](=O)[O-] .
false (0)

I would be grateful if you could indicate the recorded call for O=C(O)C1CC([C@@H]2CCCCN2)CN2CCCCC12 (stereo partly specified) .
false (0)

I would be grateful if you could indicate the recorded call for C[C@@H](N)CO .
false (0)

I would be grateful if you could indicate the recorded call for CC(=O)O[C@@](C)(CCC=C(C)C)C1CC=C(C)CC1 (stereo partly specified) .
false (0)

I would be grateful if you could indicate the recorded call for COC(=O)[C@@H]1C(O)CC[C@H]2CN3CCc4c([nH]c5ccccc45)[C@@H]3C[C@@H]21 (stereo partly specified) .
false (0)
